- tested_on: recombinant GGTase I (Homo sapiens, UniProt P49354+P53609)
- experimental_details: Fluorescent in vitro GGTase I inhibition assay
quantity_measured: Ki (nM)

CSCC[C@H](NC(=O)NC1(c2ccccc2)CCN(Cc2cncn2Cc2ccc(-n3cc(COCCCCCCNC(=O)c4ccc(NC(=N)N)cc4)nn3)cc2)CC1)C(=O)O; 3.1

P = CSCC[C@H](NC(=O)NC1(c2ccccc2)CCN(Cc2cncn2Cc2ccc(-n3cc(COCCCCCCNC(=O)c4ccc(N)cc4)nn3)cc2)CC1)C(=O)O
Q = CSCC[C@H](NC(=O)NC1(c2ccccc2)CCN(Cc2cncn2Cc2ccc(-n3cc(COCCCCCCN)nn3)cc2)CC1)C(=O)O
### Prompt Pick one: P or Q . Which has the bigger Ki number? Label of pick, please.
### Response Q
(Q: 77 nM, P: 2.9 nM)

====

- tested_on: recombinant GGTase I (Homo sapiens, UniProt P49354+P53609)
- experimental_details: Fluorescent in vitro GGTase I inhibition assay
quantity_measured: IC50 (nM)

Below, each entry is followed by its recorded IC50 result.
CSCC[C@H](NC(=O)NC1(c2ccccc2)CCN(Cc2cncn2Cc2ccc(-n3cc(COCCCCCCNC(=O)c4ccc(N)cc4)nn3)cc2)CC1)C(=O)O; 90
CSCC[C@H](NC(=O)NC1(c2ccccc2)CCN(Cc2cncn2Cc2ccc(-n3cc(COCCCCCCNC(=N)N)nn3)cc2)CC1)C(=O)O; 7840

a = CSCC[C@H](NC(=O)NC1(c2ccccc2)CCN(Cc2cncn2Cc2ccc(-n3cc(COCCCCCCNC(=O)c4ccc(C(=N)N)cc4)nn3)cc2)CC1)C(=O)O
b = CSCC[C@H](NC(=O)NC1(c2ccccc2)CCN(Cc2cncn2Cc2ccc(N=[N+]=[N-])cc2)CC1)C(=O)O
c = CSCC[C@H](NC(=O)NC1(c2ccccc2)CCN(Cc2cncn2Cc2ccc(-n3cc(COCCCCCCNC(=O)c4ccc(NC(=N)N)cc4)nn3)cc2)CC1)C(=O)O
d = CSCC[C@H](NC(=O)NC1(c2ccccc2)CCN(Cc2cncn2Cc2ccc(-n3cc(COCCCCCCN)nn3)cc2)CC1)C(=O)O
### Prompt Place the items in sequence of falling IC50. Reply with the item labels sorted in the order that was asked for.
### Response b, d, a, c

====

- tested_on: recombinant GGTase I (Homo sapiens, UniProt P49354+P53609)
- experimental_details: Fluorescent in vitro GGTase I inhibition assay
quantity_measured: Ki (nM)

CSCC[C@H](NC(=O)NC1(c2ccccc2)CCN(Cc2cncn2Cc2ccc(-n3cc(COCCCCCCNC(=N)N)nn3)cc2)CC1)C(=O)O; 250

I = CSCC[C@H](NC(=O)NC1(c2ccccc2)CCN(Cc2cncn2Cc2ccc(-n3cc(COCCCCCCNC(=O)c4ccc(C(=N)N)cc4)nn3)cc2)CC1)C(=O)O
II = CSCC[C@H](NC(=O)NC1(c2ccccc2)CCN(Cc2cncn2Cc2ccc(N=[N+]=[N-])cc2)CC1)C(=O)O
### Prompt Identify the entry with the larger Ki. Options: I and II Your answer should be the label of the entry you select.
### Response II
(II: 210 nM, I: 17 nM)

====

- tested_on: recombinant FTase (Homo sapiens, UniProt P49354+P49356)
- experimental_details: Fluorescent in vitro FTase inhibition assay
pKi: −log10 of the molar value.
quantity_measured: pKi

CSCC[C@H](NC(=O)NC1(c2ccccc2)CCN(Cc2cncn2Cc2ccc(N=[N+]=[N-])cc2)CC1)C(=O)O [Compound 3]; 8.68
CSCC[C@H](NC(=O)NC1(c2ccccc2)CCN(Cc2cnc[nH]2)CC1)C(=O)O [Compound 1]; 6.10
CSCC[C@H](NC(=O)NC1(c2ccccc2)CCN(Cc2cncn2Cc2ccc(-n3cc(COCCCCCCNC(=O)c4ccc(C(=N)N)cc4)nn3)cc2)CC1)C(=O)O [Compound 5e]; 8.70

I = CSCC[C@H](NC(=O)NC1(c2ccccc2)CCN(Cc2cncn2Cc2ccc(-n3cc(COCCCCCCN)nn3)cc2)CC1)C(=O)O [Compound 5b]
II = CSCC[C@H](NC(=O)NC1(c2ccccc2)CCN(Cc2cncn2Cc2ccc(-n3cc(COCCCCCCNC(=O)c4ccc(NC(=N)N)cc4)nn3)cc2)CC1)C(=O)O [Compound 5d]
### Prompt Choose between I and II : whose measured pKi value is numerically larger? Bench note: the answer is the label of the chosen record.
### Response II
(II: 8.74, I: 8.42)

A = CSCC[C@H](NC(=O)NC1(c2ccccc2)CCN(Cc2cncn2Cc2ccc(-n3cc(COCCCCCCNC(=N)N)nn3)cc2)CC1)C(=O)O [Compound 5a]
B = CSCC[C@H](NC(=O)NC1(c2ccccc2)CCN(Cc2cncn2Cc2ccc(-n3cc(COCCCCCCNC(=O)c4ccc(N)cc4)nn3)cc2)CC1)C(=O)O [Compound 5c]
### Prompt Would you let me know which has the greater pKi value, A or B ? Give the label under which the chosen entry appears.
### Response A

====

- tested_on: recombinant FTase (Homo sapiens, UniProt P49354+P49356)
- experimental_details: Fluorescent in vitro FTase inhibition assay
quantity_measured: IC50 (nM)

CSCC[C@H](NC(=O)NC1(c2ccccc2)CCN(Cc2cncn2Cc2ccc(N=[N+]=[N-])cc2)CC1)C(=O)O [Compound 3]; 350
CSCC[C@H](NC(=O)NC1(c2ccccc2)CCN(Cc2cncn2Cc2ccc(-n3cc(COCCCCCCNC(=O)c4ccc(N)cc4)nn3)cc2)CC1)C(=O)O [Compound 5c]; 752
CSCC[C@H](NC(=O)NC1(c2ccccc2)CCN(Cc2cncn2Cc2ccc(-n3cc(COCCCCCCNC(=O)c4ccc(NC(=N)N)cc4)nn3)cc2)CC1)C(=O)O [Compound 5d]; 300
CSCC[C@H](NC(=O)NC1(c2ccccc2)CCN(Cc2cncn2Cc2ccc(-n3cc(COCCCCCCNC(=N)N)nn3)cc2)CC1)C(=O)O [Compound 5a]; 290

P = CSCC[C@H](NC(=O)NC1(c2ccccc2)CCN(Cc2cncn2Cc2ccc(-n3cc(COCCCCCCN)nn3)cc2)CC1)C(=O)O [Compound 5b]
Q = CSCC[C@H](NC(=O)NC1(c2ccccc2)CCN(Cc2cncn2Cc2ccc(-n3cc(COCCCCCCNC(=O)c4ccc(C(=N)N)cc4)nn3)cc2)CC1)C(=O)O [Compound 5e]
### Prompt Hi team, can someone confirm which has the larger IC50: P or Q ? Thanks. State your choice using its label.
### Response P
(P: 630 nM, Q: 330 nM)
